Test: viability loss with induced miR-34 in A549 – imaging, A549 dox-inducible miR-34, nuclei and caspase counts, primary screen (AID 1347080)
Conditions: A549 miR-34 inducible, Hoechst nuclei count, 48 h; measured here: relative caspase fold change +Dox/-Dox
# fold change listing for each entry below

Compound	fold change
c1ccc(CN2CCC3(CCc4ccccc43)CC2)cc1	0.584
CCS(=O)(=O)N1CC(CC#N)(n2cc(-c3ncnc4[nH]ccc34)cn2)C1	0.869
C[C@@H](O)[C@@H]1NC(=O)[C@H](CCCCN)NC(=O)[C@@H](Cc2c[nH]c3ccccc23)NC(=O)[C@H](Cc2ccccc2)NC(=O)[C@@H](NC(=O)[C@H](N)Cc2ccccc2)CSSC[C@@H](C(=O)N[C@H](CO)[C@@H](C)O)NC1=O	0.995
CC(=O)c1c(C)c2cnc(Nc3ccc(N4CCNCC4)cn3)nc2n(C2CCCC2)c1=O	1.36
COC(=O)c1ccc2c(C(=Nc3ccc(N(C)C(=O)CN4CCN(C)CC4)cc3)c3ccccc3)c(O)[nH]c2c1	1.19
Cc1cc(Cn2cnc3c2C[C@@H](C(=O)O)N(C(=O)C(c2ccccc2)c2ccccc2)C3)ccc1N(C)C	0.611
O=C1C[C@@H]2[C@@H](CC[C@@H](O)CCc3ccccc3)[C@H](O)C[C@@H]2O1	0.657
CCCCC[C@H](O)/C=C/[C@H]1OC(O)C[C@H](O)[C@@H]1CCCCCCC(=O)O (some centres not stated)	1.26
O=C1NCCc2[nH]c(-c3ccncc3)cc21	0.743
Cc1ccccc1C#Cc1ccc(CCC(=O)O)cc1	1.21
CC(C)=CCC/C(C)=C/CC/C(C)=C/C(O)P(=O)(O)O (configuration not stated)	0.767
CCCCOC(=O)c1cc2c(cn1)[nH]c1ccccc12	0.7
CCCCCCCCCCCCCCCCCCCCCCCCC(=O)OC	0.88
Cc1cccc(-c2nn3c(c2-c2ccnc4ccc(C(N)=O)cc24)CCC3)n1	0.899
COc1ccc(NS(=O)(=O)c2ccc(I)cc2)cc1N1CCN(C)CC1	0.589
CCCCC[C@H](O)/C=C/[C@@H]1[C@@H](C/C=C\CCCC(=O)OC(C)C)[C@@H](O)C[C@H]1O	1.14
COc1ccc(-c2cc3c(C)nc(N)nc3n(C3CCC(OCCO)CC3)c2=O)cn1 (configuration not stated)	0.958
CC/C=C\C/C=C\C/C=C\C/C=C\CCCCCCC(=O)O	1
CCOC(=O)c1ccc(N=Nc2ccc(O)c(CC(=O)O)c2)cc1	0.801
Cc1nc2c(-c3cnc(N)nc3)nc(N3CCOCC3)nc2n1C(C)C	0.682
CCCCCCC[C@H](O)/C=C/[C@H]1[C@H](O)CC(=O)[C@@H]1C/C=C\CCCC(=O)O	1.19
CCCCCCCCCCCCCCCCOC[C@H](COP(=O)([O-])OCC[N+](C)(C)C)OC	1.27
Cc1cc(C)c(N(Cc2ccccc2)S(=O)(=O)c2ccc(OCCNC(=O)c3cc4ccccc4o3)cc2)c(C(=O)NO)c1	0.617
CCN(c1cc(-c2ccc(CN3CCOCC3)cc2)cc(C(=O)NCc2c(C)cc(C)[nH]c2=O)c1C)C1CCOCC1	0.487
O=C(Nc1nc2ccccc2n1CCN1CCOCC1)c1cccc([N+](=O)[O-])c1	1.35
CN1CCN(C2CCN(C(=O)Nc3cc(Oc4ccc(NC(=O)C5(C(=O)Nc6ccc(F)cc6)CC5)c(F)c4)ccn3)CC2)CC1	0.529
NC(=O)c1ccc(N(C(N)=O)c2c(F)cccc2F)nc1-c1ccc(F)cc1F	0.736

###

Experiment: drug combination growth inhibition, ovarian cancer – cell-based, oncology-focused library, rucaparib conditional, profiling panel (AID 1508598)
Settings: patient-derived ovarian cancer cells, CellTiter-Glo viability, 144 h; at 5 µM; OCI-P5x cells; with rucaparib 20 µM; stronger effect = lower value; 100% = cells with rucaparib alone
# viability listing for each entry below
Metric Name: viability (%)

Compound	Numeric Value
COc1ccc(C2=NC(c3ccc(Cl)cc3)C(c3ccc(Cl)cc3)N2C(=O)N2CCNC(=O)C2)c(OC(C)C)c1 (centres undefined)	82.1
Cc1cnc(-c2cnc(NCCNc3ccc(C#N)cn3)nc2-c2ccc(Cl)cc2Cl)[nH]1	58.5
CC(C)C[C@H](NC(=O)CNC(=O)c1cc(Cl)ccc1Cl)B(O)O	1.18
CNc1nc(-c2ccc3c(N)n[nH]c3c2)cc(N2C[C@@H](C(=O)NC3CCCCC3)CC[C@H]2C)n1	22.3

###

Assay: growth inhibition, MDA-MB-436, cell-based, BGB or cisplatin combos, synergistic combos for chromothripsis tumors (AID 1671458);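 further: cells exposed for 96 hours; 0% = vehicle DMSO and 100% = killing by high DMSO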
Settings: MDA-MB-436 breast carcinoma growth inhibition, drug combinations; measured here: cisplatin combination; at 0.5 µM; stronger effect = higher value
# inhibition listing for each entry below

Compound	inhibition (%)
COc1cc2ncnc(-n3nc(-c4ccccn4)nc3N)c2cc1OC	-13.3
O=C(/C=C/c1cccc(S(=O)(=O)Nc2ccccc2)c1)NO	26.3
O=C(O)CO.[NH2-].[NH2-].[Pt+2]	-35.5
CC(C)OC(=O)[C@H](C)N[P@](=O)(OC[C@H]1O[C@@H](n2ccc(=O)[nH]c2=O)[C@](C)(F)[C@@H]1O)Oc1ccccc1	-26.3
COc1ccc(C(=O)CC2(O)C(=O)Nc3c(Cl)ccc(Cl)c32)cc1 (centres undefined)	-2.19
C[C@]12CCCN1CC1=NNC(=O)c3cc(F)cc4[nH]c2c1c34	5.47
CN(C)Cc1c(C(=O)NCCOc2ccc(C(=O)NO)cc2)oc2ccccc12	42
CC(=O)Nc1nc(C)c(-c2ccc(Cl)c(S(=O)(=O)NCCO)c2)s1	-6.73
CN(C)c1ccc(C(=O)NCCCCCCC(=O)NO)cc1	-2.21
CC(=O)Nc1ccc(C(=O)Nc2ccccc2N)cc1	-26.9
CN(C)CCN1C(=O)c2cccc3cc(N)cc(c23)C1=O	-20.8
O=c1cc(N2CCOCC2)oc2c1ccc1ccccc12	-2.44
Nc1nc2n[nH]nc2c(=O)[nH]1	-17.5
COc1cc(C=O)c([N+](=O)[O-])cc1OC	1.75
O=C(COc1cccc2c(=O)[nH]ccc12)c1ccccc1	-11.8
NC1CCC(N[C@@H]2C[C@H]2c2ccccc2)CC1 (some centres undefined)	-20.5
CS(=O)(=O)c1ccc(-c2nnc(/C=C/c3nnc(-c4ccc(C#N)cc4)o3)n2-c2ccccc2Cl)nc1	9.17
O=C(O)[C@H](Cc1c[nH]c2ccccc12)N1C(=O)c2ccccc2C1=O	-19.2
Nc1ccccc1NC(=O)c1ccc(CNc2nccc(-c3cccnc3)n2)cc1	9.8

###

# inhibition listing for each entry below
Assay: growth inhibition, single agent or in combination, cell-based, chromothripsis tumors, cisplatin or BGB combos (AID 1671449);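 further: cells exposed for 96 hours; 0% = vehicle DMSO and 100% = killing by high DMSO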
Details: LFS_MB_P medulloblastoma cells, measured here: combination with cisplatin, at 0.5 µM, stronger effect = higher value
Metric Name: inhibition (%)

Structure	Unit String	Numeric Value
O=C(O)CO.[NH2-].[NH2-].[Pt+2]	%	-40.8
N=C1CCCN1Cc1[nH]c(=O)[nH]c(=O)c1Cl	%	-51.5
O=c1cc(N2CCOCC2)oc2c1ccc1ccccc12	%	-18.2
NC(=O)c1nc(F)c[nH]c1=O	%	-12.3

###

Assay: viability loss in pontine glioma line – cell-based, SU-DIPG-XIII, MIPE4.0, CellTiter-Glo, qHTS, dose response (AID 1347061);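 further: cells exposed to compound for 48 hours before readout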
Conditions: CellTiter-Glo ATP luminescence
Inconclusive results are not listed. Active and inactive are the calls of the source. Cut-off not given; nearly all actives show AC50 up to about 37 µM.
Labels: active, inactive

Compound	Cat
C=C1/C(=C\C=C2/CCC[C@]3(C)[C@@H]([C@H](C)/C=C/[C@H](C)C(C)C)CC[C@@H]23)C[C@@H](O)C[C@@H]1O	active
COc1ccc(Cc2ccc(NC(N)=O)cc2)cc1-c1cccc(Cl)c1	inactive
O=C1CCCC2=C1C(c1[nH]ncc1Cl)N=C(Nc1nc3ccccc3o1)N2 (configuration not stated)	inactive
C[C@@H]1C(=O)O[C@H]2CC34[C@H]5C[C@@H](C(C)(C)C)C36[C@@H](OC(=O)[C@@H]6O)O[C@@]4(C(=O)O5)[C@]21O (some centres not stated)	inactive
COc1cc2c(Oc3ccc4[nH]c(C)cc4c3F)ncnc2cc1OCCCN1CCCC1	active
Cn1cc(-c2ccc3ncc(Cc4ccc5ncccc5c4)n3n2)cn1	inactive
Clc1ccc(COC(Cn2ccnc2)c2ccc(Cl)cc2Cl)cc1 (configuration not stated)	inactive

###

Assay: drug combination growth inhibition, ovarian cancer – cell-based, oncology-focused library, rucaparib conditional, profiling panel (AID 1508598)
Details: patient-derived ovarian cancer cells, CellTiter-Glo viability, 144 h; at 0.00488 µM; OCI-C5x cells; without rucaparib
The source made the active and inactive calls.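 The calls were made as follows: active = normalized viability below 100% at a tested concentration; inactive = the rest.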
Labels: active, inactive

Structure	Cat
CC(C)[C@H](C(=O)Nc1ccc(C(=O)NO)cc1)c1ccccc1	inactive
CN1CCN(CCOc2cc(OC3CCOCC3)c3c(Nc4c(Cl)ccc5c4OCO5)ncnc3c2)CC1	active
COc1cc2nccc(Oc3ccc(NC(=O)Nc4cc(C)on4)c(Cl)c3)c2cc1OC	inactive
COC(=O)c1ccc2c(C(=Nc3ccc(N(C)C(=O)CN4CCN(C)CC4)cc3)c3ccccc3)c(O)[nH]c2c1	inactive
CNC(=O)c1ccc(N2C(=S)N(c3ccc(C#N)c(C(F)(F)F)c3)C(=O)C2(C)C)cc1F	active

Provenance of the data: PubChem BioAssay
